- studyTarget: HDAC6 (Homo sapiens, UniProt Q9UBN7)
- Construct: purchased Reaction Biology Corporation (assay run by the CRO)
- Sequence (Q9UBN7 whole entry): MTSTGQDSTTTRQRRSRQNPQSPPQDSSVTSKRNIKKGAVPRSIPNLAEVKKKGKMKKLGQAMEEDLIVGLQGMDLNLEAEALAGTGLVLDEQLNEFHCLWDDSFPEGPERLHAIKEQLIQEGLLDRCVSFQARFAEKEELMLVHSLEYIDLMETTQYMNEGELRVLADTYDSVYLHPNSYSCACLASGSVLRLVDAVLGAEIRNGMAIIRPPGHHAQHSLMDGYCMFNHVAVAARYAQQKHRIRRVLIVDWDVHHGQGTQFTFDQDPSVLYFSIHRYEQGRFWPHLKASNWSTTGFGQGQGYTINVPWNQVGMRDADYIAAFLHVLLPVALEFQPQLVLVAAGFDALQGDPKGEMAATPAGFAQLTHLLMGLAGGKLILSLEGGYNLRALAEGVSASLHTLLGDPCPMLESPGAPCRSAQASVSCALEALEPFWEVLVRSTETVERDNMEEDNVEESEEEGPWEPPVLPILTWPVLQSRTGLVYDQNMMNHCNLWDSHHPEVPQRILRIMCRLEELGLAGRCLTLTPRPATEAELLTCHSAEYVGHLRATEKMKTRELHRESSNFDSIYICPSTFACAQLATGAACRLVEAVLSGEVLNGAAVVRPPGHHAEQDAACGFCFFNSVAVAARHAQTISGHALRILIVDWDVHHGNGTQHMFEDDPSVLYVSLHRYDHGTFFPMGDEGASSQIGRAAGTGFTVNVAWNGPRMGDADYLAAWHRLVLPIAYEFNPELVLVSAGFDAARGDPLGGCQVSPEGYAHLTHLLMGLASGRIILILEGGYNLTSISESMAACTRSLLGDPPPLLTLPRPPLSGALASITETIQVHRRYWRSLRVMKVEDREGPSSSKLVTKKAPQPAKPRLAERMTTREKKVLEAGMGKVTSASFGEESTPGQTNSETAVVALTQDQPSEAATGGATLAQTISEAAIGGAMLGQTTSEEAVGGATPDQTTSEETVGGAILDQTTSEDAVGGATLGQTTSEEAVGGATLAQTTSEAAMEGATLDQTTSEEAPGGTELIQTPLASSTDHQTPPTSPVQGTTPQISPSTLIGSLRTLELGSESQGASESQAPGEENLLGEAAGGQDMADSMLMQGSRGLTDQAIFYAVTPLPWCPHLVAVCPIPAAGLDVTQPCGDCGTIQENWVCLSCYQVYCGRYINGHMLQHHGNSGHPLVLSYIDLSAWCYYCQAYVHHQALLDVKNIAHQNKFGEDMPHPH
- protocolDetails: HDAC6 inhibition, full IC50 measurement (Reaction Biology; fluorogenic p53 peptide RHKK(Ac)AMC)
- Format: biochemical
- reportedConditions: Conc. 1.00E-05 M, t1
Peptide text beside a SMILES is read from it.
measuredMetric: HDAC6 activity raw data (signal)
Numbers only.

Worked examples, 3 compounds total:
[[record]]
compound = "CCCC[C@H]1NC(=O)[C@H](CC(=O)O)NC(=O)[C@@H](CO)NC(=O)[C@@H](C)NC(=O)[C@H](CCCCN)NC(=O)[C@@H](CCCCN)NC(=O)[C@H](Cc2ccccc2)NC(=O)[C@H](CCCCCS)NC1=O [des4.3.1.2, SHA-Phe-dLys-Lys-dAla-dSer-Asp-dNle] (HELM PEPTIDE1{D.[CCCC[C@@H](N[*:1])C(=O)[*:2]].[O=C([C@H](CCCCCS)N[*:1])[*:2]].F.[dK].K.[dA].[dS]}$PEPTIDE1,PEPTIDE1,1:R1-8:R2$$$V2.0)"
measuredmetric = "HDAC6 activity raw data (signal)"
observedresult = 342990

[[record]]
compound = "NCCCC[C@@H]1NC(=O)[C@@H]2C[C@@H](O)CN2C(=O)[C@H](CC(N)=O)NC(=O)[C@H](CCCCCS)NC(=O)CNC(=O)[C@H](Cc2c[nH]c3ccccc23)NC(=O)[C@@H](CCCCN)NC(=O)[C@H](CCC(N)=O)NC1=O [des1.1.2, SHA-Asn-Hpr-Lys-Gln-dLys-Trp-Gly] (HELM PEPTIDE1{G.[O=C([C@H](CCCCCS)N[*:1])[*:2]].N.[Hyp].K.Q.[dK].W}$PEPTIDE1,PEPTIDE1,1:R1-8:R2$$$V2.0)"
measuredmetric = "HDAC6 activity raw data (signal)"
observedresult = 10576

[[record]]
compound = "N=C(N)NCCC[C@H]1NC(=O)[C@@H]2CCCN2C(=O)[C@H](CO)NC(=O)[C@@H](Cc2c[nH]cn2)NC(=O)[C@H](CCCCCS)NC(=O)[C@H](CCCCN)NC(=O)[C@H](Cc2ccc(O)cc2)NC(=O)[C@H]2CCCN2C(=O)[C@@H](CCC(N)=O)NC1=O [des3.1.0, SHA-dHis-Ser-Pro-dArg-dGln-dPro-Tyr-Lys] (HELM PEPTIDE1{K.[O=C([C@H](CCCCCS)N[*:1])[*:2]].[dH].S.P.[dR].[dQ].[dP].Y}$PEPTIDE1,PEPTIDE1,1:R1-9:R2$$$V2.0)"
measuredmetric = "HDAC6 activity raw data (signal)"
observedresult = 11537


Value sought for every listed compound: HDAC6 activity raw data (signal).
1. C[C@H](O)[C@H]1NC(=O)[C@H](Cc2c[nH]c3ccccc23)NC(=O)[C@H](CCCCCS)NC(=O)[C@H](CCCCN)NC(=O)[C@@H](CC(=O)O)NC(=O)[C@@H](CCCCN)NC(=O)[C@@H](CO)NC(=O)[C@H](CC(N)=O)NC(=O)[C@H](CC(=O)O)NC1=O [des2.1.0, SHA-Trp-dThr-Asp-Asn-dSer-dLys-dAsp-Lys] (HELM PEPTIDE1{D.N.[dS].[dK].[dD].K.[O=C([C@H](CCCCCS)N[*:1])[*:2]].W.[dT]}$PEPTIDE1,PEPTIDE1,1:R1-9:R2$$$V2.0)
2. NCCCC[C@@H]1NC(=O)[C@@H]2CCCN2C(=O)[C@H](CC(N)=O)NC(=O)[C@H](CCCCCS)NC(=O)CNC(=O)[C@H](Cc2c[nH]c3ccccc23)NC(=O)[C@@H](CCCCN)NC(=O)[C@H](CCC(N)=O)NC1=O [des1.1.0, SHA-Asn-Pro-Lys-Gln-dLys-Trp-Gly] (HELM PEPTIDE1{G.[O=C([C@H](CCCCCS)N[*:1])[*:2]].N.P.K.Q.[dK].W}$PEPTIDE1,PEPTIDE1,1:R1-8:R2$$$V2.0)
3. CC(C)[C@@H]1NC(=O)[C@H](CCCNC(=N)N)NC(=O)[C@@H](CC(=O)O)NC(=O)[C@H](CO)NC(=O)[C@@H](CO)NC(=O)[C@@H](CCC(=O)O)NC(=O)[C@H](Cc2ccc(O)cc2)NC(=O)[C@H](CCCCCS)NC1=O [des4.2.0, SHA-Tyr-dGlu-dSer-Ser-dAsp-Arg-Val] (HELM PEPTIDE1{R.V.[O=C([C@H](CCCCCS)N[*:1])[*:2]].Y.[dE].[dS].S.[dD]}$PEPTIDE1,PEPTIDE1,1:R1-8:R2$$$V2.0)
4. N=C(N)NCCC[C@@H]1NC(=O)[C@@H](CCCNC(=N)N)NC(=O)[C@H]2CCCN2C(=O)[C@@H](Cc2c[nH]cn2)NC(=O)[C@H](Cc2ccc(O)cc2)NC(=O)[C@H](CCCCCS)NC(=O)[C@H](CCc2ccccc2)NC(=O)[C@@H](CO)NC(=O)[C@H](CC(=O)O)NC1=O [des3.3.1, SHA-Tyr-dHis-dPro-dArg-Arg-Asp-dSer-C27] (HELM PEPTIDE1{[O=C([C@H](CCCCCS)N[*:1])[*:2]].Y.[dH].[dP].[dR].R.D.[dS].[O=C([C@H](CCc1ccccc1)N[*:1])[*:2]]}$PEPTIDE1,PEPTIDE1,1:R1-9:R2$$$V2.0)

### Response
1. 11243
2. 8262
3. -7055
4. 557

Value sought for every listed compound: HDAC6 activity raw data (signal).
1. CCCC[C@H]1NC(=O)[C@H](Cc2ccccc2)NC(=O)[C@H](CCCCCS)NC(=O)[C@@H](CO)NC(=O)[C@H](CC(=O)O)NC(=O)[C@@H](CO)NC(=O)[C@@H](C)NC(=O)[C@H](CCCCN)NC1=O [des4.3.1.1, SHA-Phe-dNle-Lys-dAla-dSer-Asp-dSer] (HELM PEPTIDE1{D.[dS].[O=C([C@H](CCCCCS)N[*:1])[*:2]].F.[CCCC[C@@H](N[*:1])C(=O)[*:2]].K.[dA].[dS]}$PEPTIDE1,PEPTIDE1,1:R1-8:R2$$$V2.0)
2. CC(C)C[C@H]1NC(=O)[C@H](Cc2c[nH]c3ccccc23)NC(=O)[C@H](CCCCCS)NC(=O)[C@@H](Cc2ccc(O)cc2)NC(=O)[C@@H](C(C)C)NC(=O)[C@H](Cc2c[nH]cn2)NC(=O)CNC(=O)CNC(=O)[C@@H](CO)NC1=O [des2.2.0, SHA-Trp-dLeu-dSer-Gly-Gly-His-dVal-dTyr] (HELM PEPTIDE1{G.G.H.[dV].[dY].[O=C([C@H](CCCCCS)N[*:1])[*:2]].W.[dL].[dS]}$PEPTIDE1,PEPTIDE1,1:R1-9:R2$$$V2.0)

### Response
[121881, 16305]

---

- studyTarget: HDAC3 (Homo sapiens, UniProt O15379)
- Construct: purchased Reaction Biology Corporation (assay run by the CRO)
- Sequence (O15379 whole entry): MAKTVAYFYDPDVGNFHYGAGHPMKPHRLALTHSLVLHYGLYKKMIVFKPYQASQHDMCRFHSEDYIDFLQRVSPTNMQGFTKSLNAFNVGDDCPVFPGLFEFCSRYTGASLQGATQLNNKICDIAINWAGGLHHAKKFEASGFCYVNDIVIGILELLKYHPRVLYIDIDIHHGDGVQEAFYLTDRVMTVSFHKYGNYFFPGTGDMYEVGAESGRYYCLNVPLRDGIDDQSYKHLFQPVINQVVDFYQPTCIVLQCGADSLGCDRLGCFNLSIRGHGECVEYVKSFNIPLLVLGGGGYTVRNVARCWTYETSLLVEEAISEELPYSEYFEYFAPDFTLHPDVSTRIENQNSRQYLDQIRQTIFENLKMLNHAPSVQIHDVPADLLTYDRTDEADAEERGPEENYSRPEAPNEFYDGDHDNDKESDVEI
- Sequence (Q9Y618 395-489 partner limits assumed): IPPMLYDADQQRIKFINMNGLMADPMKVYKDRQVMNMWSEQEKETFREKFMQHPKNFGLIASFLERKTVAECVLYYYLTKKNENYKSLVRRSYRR
- protocolDetails: HDAC3 inhibition, full IC50 measurement (Reaction Biology; fluorogenic p53 peptide RHKK(Ac)AMC)
- Type: biochemical
- reportedConditions: Conc. 1.00E-05 M, t2
Peptide text beside a SMILES is read from it.
For each record, write down the corresponding HDAC3 activity raw data (signal).
Numbers only.

Worked examples, 2 compounds total:
[[record]]
compound = "N=C(N)NCCC[C@H]1NC(=O)[C@@H]2CCCN2C(=O)[C@H](CO)NC(=O)[C@@H](Cc2c[nH]cn2)NC(=O)[C@H](CCCCCS)NC(=O)[C@H](CCCCN)NC(=O)[C@H](Cc2ccc(O)cc2)NC(=O)[C@H]2CCCN2C(=O)[C@@H](CCC(N)=O)NC1=O [des3.1.0, SHA-dHis-Ser-Pro-dArg-dGln-dPro-Tyr-Lys] (HELM PEPTIDE1{K.[O=C([C@H](CCCCCS)N[*:1])[*:2]].[dH].S.P.[dR].[dQ].[dP].Y}$PEPTIDE1,PEPTIDE1,1:R1-9:R2$$$V2.0)"
observedresult = 68834

[[record]]
compound = "NCCCC[C@H]1NC(=O)[C@H](CCC(N)=O)NC(=O)[C@H](CCC(=O)O)NC(=O)[C@@H]2CCCN2C(=O)[C@H](CC(N)=O)NC(=O)[C@H](CCCCCS)NC(=O)CNC(=O)[C@H](Cc2c[nH]c3ccccc23)NC1=O [des1.1.1, SHA-Asn-Pro-Glu-Gln-dLys-Trp-Gly] (HELM PEPTIDE1{E.Q.[dK].W.G.[O=C([C@H](CCCCCS)N[*:1])[*:2]].N.P}$PEPTIDE1,PEPTIDE1,1:R1-8:R2$$$V2.0)"
observedresult = 14609


Moving on to another compound below.
### Prompt Any idea what its HDAC3 activity raw data (signal) is? The compound is CC(C)C[C@H]1NC(=O)[C@H](Cc2c[nH]c3ccccc23)NC(=O)[C@H](CCCCCS)NC(=O)[C@@H](Cc2ccc(O)cc2)NC(=O)[C@@H](C(C)C)NC(=O)[C@H](Cc2c[nH]cn2)NC(=O)CNC(=O)CNC(=O)[C@@H](CO)NC1=O [des2.2.0, SHA-Trp-dLeu-dSer-Gly-Gly-His-dVal-dTyr] (HELM PEPTIDE1{G.G.H.[dV].[dY].[O=C([C@H](CCCCCS)N[*:1])[*:2]].W.[dL].[dS]}$PEPTIDE1,PEPTIDE1,1:R1-9:R2$$$V2.0)
### Response 606764
